Reference for the values: PubChem BioAssay AID2685

Assay: qHTS Assay for Lipid Storage Modulators in Drosophila S3 Cells;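 for cell number change: cells counted by Cell Tracker Red CMTPX staining in the red channel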
Settings: BODIPY lipid droplet fluorescence, 18-24 h, cells fed with added oleic acid; measured here: cell count max response
Hit rate of the full screen: of about 320,000 compounds, about 2,100 (0.66%) were called active. About 53% were inconclusive and are not listed. The list comes from a sample in which actives are over-represented; it also holds close analogues and randomly drawn compounds.
Entries and their cell number change
Field: numeric (%). Do not append units.

> print(dat)
                              compound  reading.unit  measured.number
1  O=C(Nc1ccc(F)c(F)c1)c1ccc2c(c1)OCO2             %            -8.99

// query Fill in cell number change for record "O=C(Nc1ccc2c(c1)OCCO2)c1ccc(Cl)c([N+](=O)[O-])c1"
// result -0.392

// query Entry CCc1ncc(CN2CCCC(C(=O)Nc3cccc(-c4cccc(C)c4)c3)C2)cn1 (stereo not drawn) needs its cell number change filled in; supply it.
// result 8.11

// query Tell me cell number change reported for "CCc1cccc2cc3c(N)c(C(=O)Nc4ccc(S(=O)(=O)N5CCCC5)cc4)sc3nc12"
// result 0.905

// query State its cell number change: "O=C(Nc1ccc2c(c1)OCCO2)c1ccc(Cl)cc1Cl"
// result -12.4

// query Provide cell number change value for the following compound: "Cc1nc2ccccc2nc(C)c1=NO"
// result 8.5

// query Please look at this compound and report its cell number change: "Cc1ccc(OCCOCCn2ccnc2)c(Br)c1"
// result -17

// query Kindly indicate its recorded cell number change. Item: "Cc1cc(C(=O)Nc2ccc3c(c2)OCCO3)ccc1[N+](=O)[O-]"
// result 0.293

* * *

Assay: qHTS Assay for Lipid Storage Modulators in Drosophila S3 Cells
Conditions: BODIPY lipid droplet fluorescence, 18-24 h, cells fed with added oleic acid; series mostly up to 46.1 µM
Text: NIH Molecular Libraries Probe Production Centers Network [MLPCN] NIH Chemical Genomics Center [NCGC] […] Triacsin C (Sigma-Aldrich T-4540), an inhibitor of long-chain fatty acyl CoA synthetase that blocks synthesis of triglycerides, was used as a positive control for lipid under-storage. […] Fluorescence was detected by excitation of the fluorophores with a 488-nm laser on an Acumen Explorer (TTP Lab Tech). […] Cells were detected using channel 3 (575-640 nm) with 5-um width and 100-um depth filters. […]
Out of some 320,000 compounds screened, about 2,100 (0.66%) were called active. Roughly 53% stayed inconclusive and do not appear here. Calls follow the shape of the dose curve; as a rule, active = well fitted inhibition curve with a large enough effect in the signal ratio, with a control signal flat (not every such curve was filed as active); inconclusive = small, poorly fitted or top-dose-only effect, or effect the other way, or a change in a side signal; inactive = flat fitted curve, though single readings scatter; the % refers to the signal ratio. This excerpt belongs to a sample that is enriched for actives.
Hello, when you answer, please use one of the following outcomes: active, inactive

Examples from the recorded data:
> print(dat)
                                   compound  class.name
1  CC(=O)Nc1ccc(SCCN2CC[C@@H](C(C)(C)C)CCC2=O)cc1    inactive
2      Cn1nccc1C(=O)N/N=C/c1c(O)ccc2ccccc12      active
3  COc1ccccc1Nc1nc(N)nc(CSC(=S)N2CCC(C)CC2)n1    inactive
4  O=C(NC1CCS(=O)(=O)C1)c1cccc(Br)c1 (configuration not stated)    inactive
5  N#CC[C@H](Cc1ccccc1)N1CC[C@@H](NC(=O)OCc2ccccc2)CCC1=O    inactive
6  CCc1ccccc1N(CC(=O)NCc1ccco1)C(=O)CCC(=O)Nc1nccs1    inactive
7  COc1ccccc1N(CC(=O)NCCc1ccccc1)C(=O)CCC(=O)Nc1nccs1      active
8       Cc1cc(N2CCOCC2)n2ncc(-c3ccccc3)c2n1    inactive

// query Recorded test outcome, item CCC(C)NC(=O)CC(NS(=O)(=O)c1ccc(NC(C)=O)cc1)C(C)C (configuration not stated)
// result inactive

// query // outcome(item) with item = C/C(=C/Cc1c(O)cc2oc(C)cc(=O)c2c1O)COC1OC(CO)C(O)C(O)C1O (configuration not stated)
// result inactive

// query Given "CC(C)(C)[C@H]1CCC(=O)N([C@H](CN=[N+]=[N-])Cc2ccccc2)CC1" , state the outcome it received in this test.
// result inactive

// query Identify the outcome logged in this assay for the compound shown: O=C(COc1ccc(Cl)cc1Cl)N/N=C/C1CC=CCC1 (configuration not stated)
// result active

// query Hi team, can someone confirm the assay call for "COc1c2ccc(C(=O)NCCCCc3ccccc3)cc2nn1C" ?
// result inactive

// query Dear colleague, could you share the recorded outcome for "Cc1nc2c(-c3ccccc3)cnn2c(N2CCOCC2)c1C" when you have a moment?
// result active

// query // return assay outcome for "CC(C)COc1ccc(C/C(N)=N/n2cnnc2)cc1"
// result active

// query How was "CCO[C@H]1OC(C(=O)N2CCN(C)CC2)=C[C@@H](C2CC2)[C@@H]1CCCO" classified in this test?
// result inactive

// query Please let me know the test result on file for "O=[N+]([O-])c1cc([N+](=O)[O-])c(N2CCCCCC2)cc1NCCO" .
// result inactive

// query Status in this test for COc1ccc(OCC(=O)N/N=C/C2CC=CCC2)cc1 (configuration not stated) ?
// result inactive
